Reference source for all entries: ChEMBL document CHEMBL1134816

- tested.target: Protein kinase C epsilon type (Homo sapiens)
- Sequence (Q02156 whole entry): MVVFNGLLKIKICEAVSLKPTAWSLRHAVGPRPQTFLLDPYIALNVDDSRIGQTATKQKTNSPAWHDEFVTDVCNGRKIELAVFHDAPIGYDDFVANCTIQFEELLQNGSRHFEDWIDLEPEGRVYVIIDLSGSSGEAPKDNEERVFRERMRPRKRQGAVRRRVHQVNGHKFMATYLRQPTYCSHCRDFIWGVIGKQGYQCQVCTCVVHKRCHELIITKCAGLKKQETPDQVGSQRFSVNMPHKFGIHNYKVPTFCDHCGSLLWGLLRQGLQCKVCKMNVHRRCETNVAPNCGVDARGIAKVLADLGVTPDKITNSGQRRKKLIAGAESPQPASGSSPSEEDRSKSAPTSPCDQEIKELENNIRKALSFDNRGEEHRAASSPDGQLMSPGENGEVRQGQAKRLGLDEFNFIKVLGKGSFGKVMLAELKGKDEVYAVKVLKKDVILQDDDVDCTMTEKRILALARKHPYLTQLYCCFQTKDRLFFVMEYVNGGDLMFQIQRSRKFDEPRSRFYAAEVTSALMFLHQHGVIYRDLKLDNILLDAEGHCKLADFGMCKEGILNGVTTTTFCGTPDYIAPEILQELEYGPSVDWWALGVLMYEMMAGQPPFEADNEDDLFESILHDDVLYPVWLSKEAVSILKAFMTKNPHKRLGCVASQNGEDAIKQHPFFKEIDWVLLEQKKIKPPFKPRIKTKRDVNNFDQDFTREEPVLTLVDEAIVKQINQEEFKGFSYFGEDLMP
test.readout: Ki

> print(dat)
                            compound.smiles    result
1  CCCCCCCCC#Cc1ccc2c(c1OC)C[C@@H](CO)NC(=O)[C@H](C(C)C)N2C  0.121 µM
